# System: S. pneumoniae* GC1894 (Clinical)
# experimentSummary: MIC broth microdilution, S. pneumoniae GC1894 (Clinical)
# Type: cell-based
# experimentalContext: 18-22 hours at 35° C.
readout: minimum inhibitory concentration (MIC)

CN(C)c1cc(NC(=O)CN2CCCCO2)c(O)c2c1C[C@H]1C[C@H]3[C@H](N(C)C)C(O)=C(C(N)=O)C(=O)[C@@]3(O)C(O)=C1C2=O    0.50
CC(C)N(O)CC(=O)Nc1cc(N(C)C)c2c(c1O)C(=O)C1=C(O)[C@]3(O)C(=O)C(C(N)=O)=C(O)[C@@H](N(C)C)[C@@H]3C[C@@H]1C2    0.25
CN(C)c1cc(NC(=O)CN(O)Cc2ccccc2)c(O)c2c1C[C@H]1C[C@H]3[C@H](N(C)C)C(O)=C(C(N)=O)C(=O)[C@@]3(O)C(O)=C1C2=O    0.25
CN(C)[C@@H]1C(O)=C(C(N)=O)C(=O)[C@@]2(O)C(O)=C3C(=O)c4c(O)c(NC(=O)CN5CCCCO5)cc(I)c4C[C@H]3C[C@@H]12    0.50
CN(C)c1cc(NC(=O)CN(O)C(C)(C)C)c(O)c2c1C[C@H]1C[C@H]3[C@H](N(C)C)C(O)=C(C(N)=O)C(=O)[C@@]3(O)C(O)=C1C2=O    1

###

Here the recorded ED50 is given for each entry.
# System: Staphylococcal aureus Smith M P
# experimentSummary: In vivo antibacterial evaluation, acute lethal infection in mice
# experimentalContext: Mus musculus, iv, 168 h; single intraveneous dose; female CD-1 mice; 7 day survival ratios, 3 tests pooled; read-out: SIV* ED50
readout: ED50

CN(C)c1cc(NC(=O)CN(O)C(C)(C)C)c(O)c2c1C[C@H]1C[C@H]3[C@H](N(C)C)C(O)=C(C(N)=O)C(=O)[C@@]3(O)C(O)=C1C2=O    2 to 4 mg/kg
CC(C)N(O)CC(=O)Nc1cc(N(C)C)c2c(c1O)C(=O)C1=C(O)[C@]3(O)C(=O)C(C(N)=O)=C(O)[C@@H](N(C)C)[C@@H]3C[C@@H]1C2    0.25 to 0.5 mg/kg
CN(C)c1cc(NC(=O)CN(O)Cc2ccccc2)c(O)c2c1C[C@H]1C[C@H]3[C@H](N(C)C)C(O)=C(C(N)=O)C(=O)[C@@]3(O)C(O)=C1C2=O    > 4 mg/kg
CN(C)c1cc(NC(=O)CN2CCCCO2)c(O)c2c1C[C@H]1C[C@H]3[C@H](N(C)C)C(O)=C(C(N)=O)C(=O)[C@@]3(O)C(O)=C1C2=O    0.56 mg/kg
CN(C)c1cc(NC(=O)CN(O)C2CCCCC2)c(O)c2c1C[C@H]1C[C@H]3[C@H](N(C)C)C(O)=C(C(N)=O)C(=O)[C@@]3(O)C(O)=C1C2=O    1.56 mg/kg

###

# System: E. coli GC2203 (ATCC Control)
# experimentSummary: MIC broth microdilution, E. coli GC2203 (ATCC Control)
# Type: cell-based
# experimentalContext: MHBII, 18-22 hours at 35° C.
readout: minimum inhibitory concentration (MIC)

CONCC(=O)Nc1cc(N(C)C)c2c(c1O)C(=O)C1=C(O)[C@]3(O)C(=O)C(C(N)=O)=C(O)[C@@H](N(C)C)[C@@H]3C[C@@H]1C2    2
CN(C)c1cc(NC(=O)CN(O)C2CCCCC2)c(O)c2c1C[C@H]1C[C@H]3[C@H](N(C)C)C(O)=C(C(N)=O)C(=O)[C@@]3(O)C(O)=C1C2=O    2

###

# System: C. albicans GC3066 ATCC (Control)
# experimentSummary: MIC broth microdilution, C. albicans GC3066 ATCC (Control)
# Type: cell-based
# experimentalContext: 18-22 hours at 35° C.
Items are presented alongside their recorded minimum inhibitory concentration (MIC).
readout: minimum inhibitory concentration (MIC)

CN(C)c1cc(NC(=O)CNOC(C)(C)C)c(O)c2c1C[C@H]1C[C@H]3[C@H](N(C)C)C(O)=C(C(N)=O)C(=O)[C@@]3(O)C(O)=C1C2=O [Example 4]    >64
CN(C)c1ccc(O)c2c1C[C@H]1C[C@H]3[C@H](N(C)C)C(O)=C(C(N)=O)C(=O)[C@@]3(O)C(O)=C1C2=O [Minocycline, reference compound]    >64
CN(C)c1cc(NC(=O)CN(O)C2CCCCC2)c(O)c2c1C[C@H]1C[C@H]3[C@H](N(C)C)C(O)=C(C(N)=O)C(=O)[C@@]3(O)C(O)=C1C2=O [Example 1]    >64

###

# Test system: H. influenzae<> GC6896 (ATCC Control)
# experimentSummary: MIC broth microdilution, H. influenzae GC6896 (ATCC Control)
# Type: cell-based
# experimentalContext: 18-22 hours at 35° C.
readout: minimum inhibitory concentration (MIC)

CON(C)CC(=O)Nc1cc(N(C)C)c2c(c1O)C(=O)C1=C(O)[C@]3(O)C(=O)C(C(N)=O)=C(O)[C@@H](N(C)C)[C@@H]3C[C@@H]1C2 [Example 7]    4
CN(C)c1cc(NC(=O)CN(O)C(C)(C)C)c(O)c2c1C[C@H]1C[C@H]3[C@H](N(C)C)C(O)=C(C(N)=O)C(=O)[C@@]3(O)C(O)=C1C2=O [Example 3]    8
CN(C)c1cc(NC(=O)CN2CCCCO2)c(O)c2c1C[C@H]1C[C@H]3[C@H](N(C)C)C(O)=C(C(N)=O)C(=O)[C@@]3(O)C(O)=C1C2=O [Example 8]    64
CN(C)c1cc(NC(=O)CN(O)C2CCCCC2)c(O)c2c1C[C@H]1C[C@H]3[C@H](N(C)C)C(O)=C(C(N)=O)C(=O)[C@@]3(O)C(O)=C1C2=O [Example 1]    2
CONCC(=O)Nc1cc(N(C)C)c2c(c1O)C(=O)C1=C(O)[C@]3(O)C(=O)C(C(N)=O)=C(O)[C@@H](N(C)C)[C@@H]3C[C@@H]1C2 [Example 5]    2

###

Listed here are compounds together with their documented ED50.
# Test system: Staphylococcal aureus Smith M P
# experimentSummary: In vivo antibacterial evaluation, acute lethal infection in mice
# experimentalContext: Mus musculus; single oral dose 30 minutes after intraperitoneal challenge; female CD-1 mice; 7 day survival ratios, 3 tests pooled; read-out: SOD* ED50
readout: ED50

CN(C)c1cc(NC(=O)CN(O)Cc2ccccc2)c(O)c2c1C[C@H]1C[C@H]3[C@H](N(C)C)C(O)=C(C(N)=O)C(=O)[C@@]3(O)C(O)=C1C2=O [Example 6]    > 16 mg/kg
CON(C)CC(=O)Nc1cc(N(C)C)c2c(c1O)C(=O)C1=C(O)[C@]3(O)C(=O)C(C(N)=O)=C(O)[C@@H](N(C)C)[C@@H]3C[C@@H]1C2 [Example 7]    16 to 32 mg/kg
CONCC(=O)Nc1cc(N(C)C)c2c(c1O)C(=O)C1=C(O)[C@]3(O)C(=O)C(C(N)=O)=C(O)[C@@H](N(C)C)[C@@H]3C[C@@H]1C2 [Example 5]    16 to 32 mg/kg
CN(C)c1ccc(O)c2c1C[C@H]1C[C@H]3[C@H](N(C)C)C(O)=C(C(N)=O)C(=O)[C@@]3(O)C(O)=C1C2=O [Minocycline, reference compound]    0.6 to 0.93 mg/kg
CN(C)c1cc(NC(=O)CN(O)C(C)(C)C)c(O)c2c1C[C@H]1C[C@H]3[C@H](N(C)C)C(O)=C(C(N)=O)C(=O)[C@@]3(O)C(O)=C1C2=O [Example 3]    > 32 mg/kg

###

# Test system: E. coli GC2203 (ATCC Control)
# experimentSummary: MIC broth microdilution, E. coli GC2203 (ATCC Control)
# Type: cell-based
# experimentalContext: MHBII, 18-22 hours at 35° C.
readout: minimum inhibitory concentration (MIC)

CN(C)c1cc(NC(=O)CN2CCCCO2)c(O)c2c1C[C@H]1C[C@H]3[C@H](N(C)C)C(O)=C(C(N)=O)C(=O)[C@@]3(O)C(O)=C1C2=O [Example 8]    >64
CN(C)[C@@H]1C(O)=C(C(N)=O)C(=O)[C@@]2(O)C(O)=C3C(=O)c4c(O)c(NC(=O)CN5CCCCO5)cc(-c5cccs5)c4C[C@H]3C[C@@H]12 [Example 10]    >64
CON(C)CC(=O)Nc1cc(N(C)C)c2c(c1O)C(=O)C1=C(O)[C@]3(O)C(=O)C(C(N)=O)=C(O)[C@@H](N(C)C)[C@@H]3C[C@@H]1C2 [Example 7]    >64

Data provenance is patent US7812008B2.
